B1: Twister Ribozyme (parent)
chain: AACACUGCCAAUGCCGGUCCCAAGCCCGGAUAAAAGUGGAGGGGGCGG

# Variants of: B1
# assay: self-cleavage, relative activity (ratio to wild type); higher = more cleavage; co-transcriptional
reported-property: self-cleavage
I'd appreciate a reply containing only the number, no unit.

- mutation-label: "A35U C46U"
  self-cleavage: 0.894
- mutation-label: "C5A G39U"
  self-cleavage: 0.0872
- mutation-label: "U31G A34U"
  self-cleavage: 0.904
- mutation-label: "A1C G41C"
  self-cleavage: 0.14
- mutation-label: "A2G G39U"
  self-cleavage: 0.122

Which self-cleavage is reported for this variant? A33U G42C
0.323
